pIC50 reference
Target: Human autotaxin enzyme (Homo sapiens)
Construct: purchased R&D System
Test: Evaluation of autotaxin inhibitor, Method C (Test Example 3): 18:0 Lyso PC, choline assay, Resorufin fluorescence
Assay type: biochemical
Settings: Assay Method C (Test Example 3), human autotaxin, 18:0 Lyso PC substrate; read-out: Inhibitory Activity (autotaxin enzyme inhibitory activity, IC50 class)
pIC50: −log10 of the molar value.

CCCCCn1c(-c2cccc(C(=O)NCc3ccccc3)c2)cc(=O)n2cc(-c3ccc(Cl)cc3)nc12	6.00 to 7.00
CCCCCn1c(N2CCNC[C@H]2C(=O)O)cc(=O)n2cc(-c3ccc(Cl)cc3)nc12	< 6.00
CCn1c(N2CCC[C@H]2C(=O)N[C@@H](CCc2ccccc2)C(=O)O)cc(=O)n2cc(-c3ccc(Cl)cc3)nc12	7.00 to 8.00
O=C(O)[C@H](CCc1ccccc1)NC(=O)[C@@H]1CCCN1c1cc(=O)n2cc(-c3ccc(Cl)cc3)nc2n1Cc1ccccc1	> 8.00
CCCCCn1c(O[C@H]2CC[C@H](C(C)(C)C(=O)O)CC2)cc(=O)n2cc(-c3ccc(Cl)cc3)nc12	7.00 to 8.00

Data request: Field request: pIC50 | item: `CCCCCn1c(N2CCN(C(C)=O)CC2)cc(=O)n2cc(-c3ccc(Cl)cc3)nc12`
Data returned: 7.00 to 8.00

Data request: Field request: pIC50 | item: `CCCCCn1c(-c2ccc(C(=O)N3CCN(S(C)(=O)=O)CC3)cc2)cc(=O)n2cc(-c3ccc(Cl)cc3)nc12`
Data returned: 7.00 to 8.00
